# System: cancer cell lines
# assayNotes: Multiplexed cytotoxicity assay: cell proliferation (relative cell count IC50, GI50)
# Assay type: cell-based
# conditionParameters: TF1 (Hematopoietic and lymphoid, Leukemia)
metricName: IC50 (nM)
Only the number, expressed in nM, is required.

// field: IC50; key: "C[C@]1(C(N)=O)CC[C@@H](n2c(Nc3c(Cl)cc(Cl)cc3Cl)nc3cnc(N[C@@H]4CCOC[C@H]4F)nc32)CC1" ; value = 9.5

###

# Tested on: cancer cell lines
# assayNotes: Multiplexed cytotoxicity assay: cell proliferation (relative cell count IC50, GI50)
# Type: cell-based
# conditionParameters: Homo sapiens, CAPAN-1, 72 h, CAPAN1, Pancreas; 72 h
pIC50: −log10 of the molar value.
metricName: pIC50

// field: pIC50; key: "C[C@]1(C(N)=O)CC[C@@H](n2c(Nc3c(Cl)cc(Cl)cc3Cl)nc3cnc(N[C@@H]4CCOC[C@H]4F)nc32)CC1" ; value = < 5.00

###

# assayNotes: Approximate solubility in various solvents at room temperature
# Type: physicochemical
# conditionParameters: MeCN/water (1:1), aqueous with cosolvent or surfactant or cyclodextrin, thermodynamic from solid, MeCN/water (1:1)
metricName: solubility at 1 day

// field: solubility at 1 day; key: C[C@]1(C(N)=O)CC[C@@H](n2c(Nc3c(Cl)cc(Cl)cc3Cl)nc3cnc(N[C@@H]4CCOC[C@H]4F)nc32)CC1 [Form A] ; value = > 50 mg/mL

###

# Test system: cancer cell lines
# assayNotes: Multiplexed cytotoxicity assay: cell proliferation (relative cell count IC50, GI50)
# Assay type: cell-based
# conditionParameters: Homo sapiens, BV-173, BV173 (Hematopoietic and lymphoid, Leukemia)
pIC50: −log10 of the molar value.
metricName: pIC50

Readout pIC50 for "C[C@]1(C(N)=O)CC[C@@H](n2c(Nc3c(Cl)cc(Cl)cc3Cl)nc3cnc(N[C@@H]4CCOC[C@H]4F)nc32)CC1" , test system cancer cell lines, was < 5.00

###

# Tested on: cancer cell lines
# assayNotes: Multiplexed cytotoxicity assay: cell proliferation (relative cell count IC50, GI50)
# Type: cell-based
# conditionParameters: HT (Hematopoietic and lymphoid, Lymphoma)
metricName: IC50

// field: IC50; key: "C[C@]1(C(N)=O)CC[C@@H](n2c(Nc3c(Cl)cc(Cl)cc3Cl)nc3cnc(N[C@@H]4CCOC[C@H]4F)nc32)CC1" ; value = > 10 µM

###

# System: cancer cell lines
# assayNotes: Multiplexed cytotoxicity assay: cell proliferation (relative cell count IC50, GI50)
# Type: cell-based
# conditionParameters: Homo sapiens, SW-620, SW620 (Colon)
metricName: pIC50
Interpret pIC50 as the negative base-10 log of the concentration measured in mol/L.

// field: pIC50; key: "C[C@]1(C(N)=O)CC[C@@H](n2c(Nc3c(Cl)cc(Cl)cc3Cl)nc3cnc(N[C@@H]4CCOC[C@H]4F)nc32)CC1" ; value = 7.10

###

# Test system: 64 cancer cell lines
# assayNotes: Anti-proliferative activity across a panel of 64 cancer cell lines (CellTiter-Glo)
# Type: cell-based
# conditionParameters: Homo sapiens, NCI-H1299, 72 h, NCI-H1299 (Lung)
metricName: pIC50
Interpret pIC50 as the negative base-10 log of the concentration measured in mol/L.

// field: pIC50; key: "C[C@]1(C(N)=O)CC[C@@H](n2c(Nc3c(Cl)cc(Cl)cc3Cl)nc3cnc(N[C@@H]4CCOC[C@H]4F)nc32)CC1" ; value = 6.30
